The reported numbers originate from patent US20100152267A1.

# key: entry, value: MIC
System: Enterococcus faecium OC 3312 vancomycin resistant
Assay: MIC by microdilution broth method (NCCLS), A Strain
Type: cell-based
Conditions: read-out: MIC A Strain

Molecule	Endpoint Unit	Relation Symbol	MIC
CO[C@H]1/C=C/O[C@@]2(C)Oc3c(C)c(O)c4c(O)c(c5c(CNCc6ccc(N7CCN(C)CC7)cc6)c[nH]c5c4c3C2=O)NC(=O)/C(C)=C\C=C\[C@H](C)[C@H](O)[C@@H](C)[C@@H](O)[C@@H](C)[C@H](OC(C)=O)[C@@H]1C [Compound 4]	µg/mL	=	1
CO[C@H]1/C=C/O[C@@]2(C)Oc3c(C)c(O)c4c(O)c(c5c(CN)c[nH]c5c4c3C2=O)NC(=O)/C(C)=C\C=C\[C@H](C)[C@H](O)[C@@H](C)[C@@H](O)[C@@H](C)[C@H](OC(C)=O)[C@@H]1C [Compound 1]	µg/mL	<	1
CO[C@H]1/C=C/O[C@@]2(C)Oc3c(C)c(O)c4c(O)c(c5c(CN6CCCCC6)c[nH]c5c4c3C2=O)NC(=O)/C(C)=C\C=C\[C@H](C)[C@H](O)[C@@H](C)[C@@H](O)[C@@H](C)[C@H](OC(C)=O)[C@@H]1C [Compound 2]	µg/mL	=	8
CO[C@H]1/C=C/O[C@@]2(C)Oc3c(C)c(O)c4c(O)c(c5c(CN(Cc6ccc(N7CCN(C)CC7)cc6)Cc6ccc(N7CCN(C)CC7)cc6)c[nH]c5c4c3C2=O)NC(=O)/C(C)=C\C=C\[C@H](C)[C@H](O)[C@@H](C)[C@@H](O)[C@@H](C)[C@H](OC(C)=O)[C@@H]1C [Compound 5]	µg/mL	=	1
CO[C@H]1/C=C/O[C@@]2(C)Oc3c(C)c(O)c4c(O)c(c5c(CN(C)Cc6ccc(N7CCN(C)CC7)cc6)c[nH]c5c4c3C2=O)NC(=O)/C(C)=C\C=C\[C@H](C)[C@H](O)[C@@H](C)[C@@H](O)[C@@H](C)[C@H](OC(C)=O)[C@@H]1C [Compound 3]	µg/mL	=	2
